# TARGET: human progesterone receptor (Homo sapiens, UniProt P06401)
# Sequence (P06401 1-933): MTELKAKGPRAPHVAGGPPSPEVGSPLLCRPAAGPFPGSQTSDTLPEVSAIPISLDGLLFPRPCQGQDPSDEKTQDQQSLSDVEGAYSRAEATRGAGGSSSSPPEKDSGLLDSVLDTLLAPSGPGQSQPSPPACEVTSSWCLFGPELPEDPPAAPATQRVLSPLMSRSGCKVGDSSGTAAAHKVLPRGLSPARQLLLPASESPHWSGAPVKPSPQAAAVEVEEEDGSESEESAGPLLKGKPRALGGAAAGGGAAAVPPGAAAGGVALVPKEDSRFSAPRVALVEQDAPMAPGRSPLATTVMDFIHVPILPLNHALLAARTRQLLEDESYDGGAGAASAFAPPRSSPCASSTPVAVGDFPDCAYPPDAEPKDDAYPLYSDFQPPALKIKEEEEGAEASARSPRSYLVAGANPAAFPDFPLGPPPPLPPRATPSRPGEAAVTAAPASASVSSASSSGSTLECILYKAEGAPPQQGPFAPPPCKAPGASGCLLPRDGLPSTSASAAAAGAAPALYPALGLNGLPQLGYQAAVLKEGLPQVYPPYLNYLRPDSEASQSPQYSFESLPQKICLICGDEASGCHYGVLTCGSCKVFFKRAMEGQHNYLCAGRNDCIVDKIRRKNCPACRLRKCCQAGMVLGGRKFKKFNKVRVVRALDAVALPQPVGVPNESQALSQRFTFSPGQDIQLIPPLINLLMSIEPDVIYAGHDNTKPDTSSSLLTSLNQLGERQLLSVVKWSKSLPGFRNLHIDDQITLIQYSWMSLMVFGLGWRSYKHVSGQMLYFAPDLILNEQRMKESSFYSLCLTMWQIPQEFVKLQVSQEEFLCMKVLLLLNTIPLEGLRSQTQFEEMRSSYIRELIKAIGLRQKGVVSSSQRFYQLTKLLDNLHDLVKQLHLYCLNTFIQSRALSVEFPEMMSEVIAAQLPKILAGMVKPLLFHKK
# TEST_PROTOCOL: Progesterone receptor binding (displacement of 3H-progesterone, whole cell extract of transfected CV-1 cells)
Field: label. Allowed values: yes (Kd < 400 nM) or no (Kd >= 400 nM).

> print(dat)
                                   compound  group.label
1  C=C1CCCCC1Cc1ccc([N+](=O)[O-])cc1 (stereo not drawn)          yes
2  CC1(C)CC=CC(=O)C1Cc1ccc([N+](=O)[O-])cc1 (stereo not drawn)           no
3  C=C1C=C(C)CC(C)(C)C1Cc1cc(OC)c(Br)cc1OC(C)=O (stereo not drawn)          yes
4  C=C1C=CCC(C)(C)C1Cc1ccc([N+](=O)[O-])c(C)c1 (stereo not drawn)          yes
5  C=C1C[C@H](CCC2OCCO2)CC(C)(C)[C@@H]1Cc1cc(OC)c(Br)cc1O (relative stereo)          yes
6  C=C1C[C@H](C)CC(C)(C)[C@@H]1Cc1cc(OC)c(Br)cc1O (relative stereo)          yes
7  C=C1[C@H](O)C[C@@H](Br)C(C)(C)[C@@H]1Cc1cc(OC)c(Br)cc1O           no
8  C=C1C[C@@](C)(CO)CC(C)(C)[C@@H]1Cc1cc(OC)c(Br)cc1O (relative stereo)           no
